test system: M14 melanoma; experiment: NCI tumour cell line growth inhibition, 48 h
Reported Metric: TGI

The examples below pair each entry with its known result.
Compound | Reported Metric | Result
Cc1ccc2c(c1)CC1(Cc3cc(C)ccc3C1=O)C2=O | TGI | > 100 µM
O=C(O)CCCCCNCc1cc2cc3c(cc2c2cc(OCc4ccccc4)ccc12)OCO3 | TGI | 3.51 µM
CC/C(=C/c1ccc(OC)cc1)[N+](=O)[O-] | TGI | 4.18 µM
CCN(CC)C(=O)Cc1[nH][nH]c(=O)c1C(=O)N(CC)CC | TGI | > 100 µM
CC(=O)OC1(C(C)=O)CC2(c3ccccc3)OC1(c1ccccc1)c1ccccc12 (centres undefined) | TGI | > 100 µM

# input // fetch TGI for Cc1ccc([N+](=O)[O-])cc1S(=O)(=O)Nc1ccc(C2=NN(S(=O)(=O)c3cc([N+](=O)[O-])ccc3C)C(c3ccccc3O)C2)cc1 (centres undefined) ; system: M14 melanoma
# output > 100 µM

# input // fetch TGI for `CNC(=O)c1sc(-n2cnc3cc(OC)c(OC)cc32)cc1OCc1ccccc1C(F)(F)F` ; system: M14 melanoma
# output > 25 µM

# input // fetch TGI for `C(=C\c1ccc2ccccc2c1Nc1ccccc1)/c1ccccc1` ; system: M14 melanoma
# output 49.6 µM

# input // fetch TGI for `O=[N+]([O-])c1ccc(CSC2=C(c3ccc(Cl)cc3)S/C(=C3\SC(SCc4ccc([N+](=O)[O-])cc4)=C(c4ccc(Cl)cc4)S3)S2)cc1` ; system: M14 melanoma
# output > 100 µM

These measurements were taken from PubChem BioAssay (NCI).
